Tested on: MDA-MB 231 (human breast adenocarcinoma)
Assay notes: MTS cytotoxicity assay, MDA-MB 231 cells
Assay type: cell-based
Setup conditions: Homo sapiens, MDA-MB-231, 48 h of incubation
Can you tell me IC50 for the items I'm about to list?
Supply the numeric figure in µM, leaving out any unit text.

Input COc1cccc2c1C(=O)c1c(O)c3c(c(O)c1C2=O)C[C@@](O)(C(=O)CO)C[C@@H]3O[C@H]1C[C@H](N)[C@H](O)[C@H](C)O1 [ADR, adriamycin, reference compound] , output reported IC50.
7.85

Input CCn1cc(C(=O)O)c(=O)c2cc3c(cc21)OCO3 [oxo, reference compound] , output reported IC50.
43.5
